Below are compounds with their pIC50 as measured on Acetylcholinesterase (Homo sapiens, UniProt P22303).
Sequence (P22303 whole entry): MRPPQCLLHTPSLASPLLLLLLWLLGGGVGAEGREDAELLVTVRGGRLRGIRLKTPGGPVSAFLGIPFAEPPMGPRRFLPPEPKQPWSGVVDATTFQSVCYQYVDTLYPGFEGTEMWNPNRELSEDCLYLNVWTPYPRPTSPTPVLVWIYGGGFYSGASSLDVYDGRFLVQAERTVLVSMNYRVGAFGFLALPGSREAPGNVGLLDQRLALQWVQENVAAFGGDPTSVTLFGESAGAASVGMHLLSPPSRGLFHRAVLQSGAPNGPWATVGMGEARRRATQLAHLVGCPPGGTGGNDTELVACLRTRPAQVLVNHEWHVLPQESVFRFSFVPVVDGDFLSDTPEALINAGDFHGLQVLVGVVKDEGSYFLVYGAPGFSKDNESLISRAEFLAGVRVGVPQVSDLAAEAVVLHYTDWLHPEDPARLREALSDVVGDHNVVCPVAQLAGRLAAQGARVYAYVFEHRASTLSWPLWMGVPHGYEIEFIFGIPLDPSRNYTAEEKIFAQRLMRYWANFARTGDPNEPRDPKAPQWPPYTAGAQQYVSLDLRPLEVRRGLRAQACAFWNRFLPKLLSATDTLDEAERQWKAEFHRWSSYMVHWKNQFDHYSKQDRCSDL
As a rule, pIC50 stands for the negative log10 of the concentration, concentration in M.

See these solved cases before continuing.
* CN(C)C(=O)Oc1cccc2c1cc(C(=O)NC1CCCCC1)c[n+]2C | 7.70
* CN(C)C(=O)Oc1cccc2c1cc(C(=O)NCCOCCO)c[n+]2C | 7.43

[Q] Report pIC50 for CC(C)NC(=O)c1cc2c(OC(=O)N(C)C)cccc2[n+](C)c1 tested on Acetylcholinesterase (Homo sapiens, UniProt P22303).
[A] 7.24

[Q] Report pIC50 for CN(C)C(=O)Oc1cccc2c1cc(C(=O)NCCOCCOCCN1C(=O)c3ccccc3C1=O)c[n+]2C tested on Acetylcholinesterase (Homo sapiens, UniProt P22303).
[A] 8.22

[Q] Report pIC50 for CN(C)C(=O)Oc1cccc2c1cc(C(=O)N(C)C)c[n+]2C tested on Acetylcholinesterase (Homo sapiens, UniProt P22303).
[A] 6.81

Just for reference, ChEMBL document CHEMBL4152292 is where these values come from.
